Entry source: patent US20250170248A1

# experimental_target: SMARCA4 (Homo sapiens, UniProt P51532)
# Construct: SMARCA2/SMARCA4 protein degradation selectivity in MV4-11 cells; endogenous in cells; host or cells: MV4-11
# Sequence (P51532 whole entry): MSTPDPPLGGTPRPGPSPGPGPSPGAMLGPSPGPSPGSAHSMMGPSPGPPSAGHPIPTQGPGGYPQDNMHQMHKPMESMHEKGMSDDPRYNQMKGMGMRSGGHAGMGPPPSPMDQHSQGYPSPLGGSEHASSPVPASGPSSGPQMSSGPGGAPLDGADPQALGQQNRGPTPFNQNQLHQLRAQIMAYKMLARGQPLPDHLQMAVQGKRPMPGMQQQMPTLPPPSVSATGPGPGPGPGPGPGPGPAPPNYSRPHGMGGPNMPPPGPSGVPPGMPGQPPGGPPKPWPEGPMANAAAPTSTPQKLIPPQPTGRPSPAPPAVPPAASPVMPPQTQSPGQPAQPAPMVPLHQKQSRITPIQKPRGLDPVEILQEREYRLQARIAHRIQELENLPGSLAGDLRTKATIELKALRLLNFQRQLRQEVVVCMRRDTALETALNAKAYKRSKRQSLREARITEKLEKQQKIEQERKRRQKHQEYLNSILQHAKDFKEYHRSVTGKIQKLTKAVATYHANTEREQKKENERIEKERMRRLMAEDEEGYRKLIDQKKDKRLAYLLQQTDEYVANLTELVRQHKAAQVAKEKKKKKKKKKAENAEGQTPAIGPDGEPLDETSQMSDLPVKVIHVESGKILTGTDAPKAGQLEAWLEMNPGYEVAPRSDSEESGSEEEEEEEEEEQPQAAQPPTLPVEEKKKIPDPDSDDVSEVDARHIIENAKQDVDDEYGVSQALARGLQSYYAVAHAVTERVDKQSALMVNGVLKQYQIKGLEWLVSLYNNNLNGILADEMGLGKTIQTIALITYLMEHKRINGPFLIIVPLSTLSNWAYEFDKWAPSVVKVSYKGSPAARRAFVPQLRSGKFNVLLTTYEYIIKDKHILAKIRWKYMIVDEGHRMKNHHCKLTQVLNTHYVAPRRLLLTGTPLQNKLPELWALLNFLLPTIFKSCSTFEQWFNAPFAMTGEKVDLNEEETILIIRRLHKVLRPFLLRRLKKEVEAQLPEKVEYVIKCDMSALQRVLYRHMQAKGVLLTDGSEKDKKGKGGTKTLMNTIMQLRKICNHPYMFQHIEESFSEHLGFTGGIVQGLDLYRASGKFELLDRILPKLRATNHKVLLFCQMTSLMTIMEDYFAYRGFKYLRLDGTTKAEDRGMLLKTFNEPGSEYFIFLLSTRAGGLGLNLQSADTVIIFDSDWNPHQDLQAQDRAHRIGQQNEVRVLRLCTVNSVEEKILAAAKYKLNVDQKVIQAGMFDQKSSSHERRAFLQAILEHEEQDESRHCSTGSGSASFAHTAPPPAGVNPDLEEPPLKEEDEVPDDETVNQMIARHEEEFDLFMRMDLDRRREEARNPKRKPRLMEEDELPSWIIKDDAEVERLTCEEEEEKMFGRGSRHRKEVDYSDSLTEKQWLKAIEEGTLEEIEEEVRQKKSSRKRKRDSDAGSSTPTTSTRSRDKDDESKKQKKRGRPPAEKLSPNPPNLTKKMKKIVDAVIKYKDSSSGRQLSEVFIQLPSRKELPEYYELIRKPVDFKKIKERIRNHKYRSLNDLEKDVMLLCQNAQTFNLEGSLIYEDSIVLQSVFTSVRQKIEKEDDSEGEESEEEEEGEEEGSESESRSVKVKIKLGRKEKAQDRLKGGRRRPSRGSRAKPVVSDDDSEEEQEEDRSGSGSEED
# assay_text: SMARCA4 Western blot degradation in MV4-11 cells
# Assay type: cell-based
# condition_parameters: MV4-11 cells
# Protocol: Example 11. SMARCA2 and SMARCA4 Western Blot MV4-11 Degradation Cells were seeded into 6-well plates (MV4-11:4×10^6 cells/well/1 ml) and 1 ml of 2× compound solution was added into the well to make the final concentration and the plates were mixed well and incubated for 24 hours (No cytotoxicity was observed). The cell were collected with media and spun at 3000 rpm for 5 minutes. […] The membrane was washed three times with 5 minutes each and lastly the LiCOR was read. […]
reported_metric: SMARCA4 MSD MV411 degradation 24 h: average Dmax %

C#Cc1ccc(CNC(=O)[C@@H]2C[C@@H](O)CN2C(=O)[C@H](NC(=O)[C@H]2CCC3(CC2)C[C@H](N2CCN(c4cnc(N5CCN6c7cc(-c8ccccc8O)nnc7NC[C@H]6C5)nc4)CC2)C3)C(C)(C)CCO)c(Cl)c1 (stereo partly drawn) [I-307] :: D (D (<50% degradation))
Cc1ncsc1-c1ccc(CNC(=O)[C@@H]2C[C@@H](O)CN2C(=O)[C@@H](NC(=O)[C@H]2CC3(C2)C[C@H](N2CCC(N4CCC(c5ccc6[nH]c7nnc(-c8ccccc8O)cc7c6c5)CC4)CC2)C3)C(C)(C)C)cc1 (single isomer, unassigned) [I-29] :: D (D (<50% degradation))
C#Cc1ccc(CNC(=O)[C@@H]2C[C@@H](O)CN2C(=O)[C@@H](NC(=O)[C@H]2CC3(C2)C[C@H](N2CCC(N4CCC(N5CCN6c7cc(-c8ccccc8O)nnc7NC[C@H]6C5)CC4)CC2)C3)C(C)(C)CCO)cc1 (single isomer, unassigned) [I-365] :: D (D (<50% degradation))
Cc1ncsc1-c1ccc(CNC(=O)[C@@H]2C[C@@H](O)CN2C(=O)[C@@H](NC(=O)[C@H]2CC3(C2)C[C@H](N2CCC(c4ccnc(N5CCN6c7cc(-c8ccccc8O)nnc7NC[C@@H]6C5)n4)CC2)C3)C(C)(C)C)cc1 (single isomer, unassigned) [I-4] :: D (D (<50% degradation))

###

# experimental_target: SMARCA2 (Homo sapiens)
# Sequence (P51531 whole entry): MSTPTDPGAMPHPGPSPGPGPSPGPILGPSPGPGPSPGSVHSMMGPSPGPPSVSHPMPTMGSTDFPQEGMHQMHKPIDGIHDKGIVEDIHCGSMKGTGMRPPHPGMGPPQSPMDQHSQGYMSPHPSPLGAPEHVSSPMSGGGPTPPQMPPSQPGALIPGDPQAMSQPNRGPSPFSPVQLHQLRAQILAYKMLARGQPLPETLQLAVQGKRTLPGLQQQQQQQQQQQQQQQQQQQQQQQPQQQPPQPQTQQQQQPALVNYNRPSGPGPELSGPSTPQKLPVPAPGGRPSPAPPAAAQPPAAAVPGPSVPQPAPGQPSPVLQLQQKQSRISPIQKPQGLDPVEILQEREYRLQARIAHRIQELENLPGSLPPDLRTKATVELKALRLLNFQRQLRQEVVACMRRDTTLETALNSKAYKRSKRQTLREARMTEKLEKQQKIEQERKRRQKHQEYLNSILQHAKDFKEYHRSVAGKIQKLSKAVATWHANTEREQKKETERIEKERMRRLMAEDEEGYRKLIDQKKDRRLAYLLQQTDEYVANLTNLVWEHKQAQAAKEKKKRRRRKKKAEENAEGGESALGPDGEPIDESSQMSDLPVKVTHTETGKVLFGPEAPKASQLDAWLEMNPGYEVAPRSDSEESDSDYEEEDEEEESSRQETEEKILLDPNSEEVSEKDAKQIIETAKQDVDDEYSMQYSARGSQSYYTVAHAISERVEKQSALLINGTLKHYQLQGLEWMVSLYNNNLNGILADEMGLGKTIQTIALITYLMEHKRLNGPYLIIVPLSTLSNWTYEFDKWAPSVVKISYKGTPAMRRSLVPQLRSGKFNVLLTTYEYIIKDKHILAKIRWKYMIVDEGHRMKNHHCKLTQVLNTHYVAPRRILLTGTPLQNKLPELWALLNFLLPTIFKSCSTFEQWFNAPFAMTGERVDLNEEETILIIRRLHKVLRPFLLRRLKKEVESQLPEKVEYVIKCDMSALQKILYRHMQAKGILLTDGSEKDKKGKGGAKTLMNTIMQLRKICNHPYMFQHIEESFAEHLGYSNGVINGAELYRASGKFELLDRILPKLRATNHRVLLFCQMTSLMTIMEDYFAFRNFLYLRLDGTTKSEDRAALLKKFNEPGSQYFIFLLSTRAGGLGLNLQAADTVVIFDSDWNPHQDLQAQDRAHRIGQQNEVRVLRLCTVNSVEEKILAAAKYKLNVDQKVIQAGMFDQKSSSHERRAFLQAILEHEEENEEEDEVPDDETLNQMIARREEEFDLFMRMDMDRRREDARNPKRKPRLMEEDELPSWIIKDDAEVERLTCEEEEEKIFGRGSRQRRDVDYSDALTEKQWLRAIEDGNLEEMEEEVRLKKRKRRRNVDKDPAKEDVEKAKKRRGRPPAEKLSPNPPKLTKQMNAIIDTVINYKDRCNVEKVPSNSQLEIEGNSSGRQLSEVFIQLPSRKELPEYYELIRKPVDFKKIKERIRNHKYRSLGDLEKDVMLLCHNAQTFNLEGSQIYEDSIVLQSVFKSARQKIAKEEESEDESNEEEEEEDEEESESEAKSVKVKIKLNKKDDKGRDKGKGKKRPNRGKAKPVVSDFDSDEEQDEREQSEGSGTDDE
# assay_text: SMARCA2 Western blot degradation in MV4-11 cells
# Assay type: cell-based
# Parameters: SMARCA2/SMARCA4 protein degradation selectivity in MV4-11 cells; endogenous in cells; host or cells: MV4-11
# condition_parameters: SMARCA2/4 selectivity, MV4-11 cells
reported_metric: Selectivity in MV411

Cc1ncsc1-c1ccc(CNC(=O)[C@@H]2C[C@@H](O)CN2C(=O)[C@@H](NC(=O)N2CC3(CC(N4CCC(c5cnc(N6CCN7c8cc(-c9ccccc9O)nnc8NC[C@H]7C6)nc5)CC4)C3)C2)C(C)(C)C)cc1 :: C (C (10-100 fold))
C#Cc1ccc(CNC(=O)[C@@H]2C[C@@H](O)CN2C(=O)[C@@H](NC(=O)N2CCN(CC3CCN([C@H]4CC[C@H](N5CCc6[nH]c7nnc(-c8ccccc8O)cc7c6[C@H]5C)CC4)CC3)CC2)C(C)(C)C)cc1 :: C (C (10-100 fold))
Cc1ncsc1-c1ccc(CNC(=O)[C@@H]2C[C@@H](O)CN2C(=O)[C@@H](c2cc(N3CC4(CC(N5CCC(c6cnc(N7CCN8c9cc(-c%10ccccc%10O)nnc9NC[C@H]8C7)nc6)CC5)C4)C3)no2)C(C)C)cc1 (single isomer, unassigned) :: D (D (<10 fold))
Cc1ncsc1-c1ccc(CNC(=O)[C@@H]2C[C@@H](O)CN2C(=O)[C@@H](NC(=O)[C@H]2CC[C@@H](c3ccc(-c4cnc(N5CCN6c7cc(-c8ccccc8O)nnc7NC[C@H]6C5)nc4)cc3)CC2)C(C)(C)C)cc1 :: C (C (10-100 fold))
Cc1cc(Cl)ccc1C#CCNC(=O)[C@@H]1C[C@@H](O)CN1C(=O)[C@@H](NC(=O)[C@H]1CCC2(CC1)C[C@H](N1CCC(c3cnc(N4CCN5c6cc(-c7ccccc7O)nnc6NC[C@H]5C4)nc3)CC1)C2)C(C)(C)C (single isomer, unassigned) [I-126] :: C (C (10-100 fold))

IN: For the compound "C#Cc1ccc(CNC(=O)[C@@H]2C[C@@H](O)CN2C(=O)[C@@H](NC(=O)CCCCCCCN2CCC(N3CC4(CC(N5CCN6c7cc(-c8ccccc8O)nnc7NC[C@H]6C5)C4)C3)CC2)C(C)(C)C)cc1" , what Selectivity in MV411 is on record?
OUT: B (B (>100-500 fold))

IN: For the compound Cc1ncsc1-c1ccc(CNC(=O)[C@@H]2C[C@@H](O)CN2C(=O)[C@@H](NC(=O)C2(F)CC2)C(C)(C)C)c(OCCN2CCC(c3cnc(N4CCN5c6cc(-c7ccccc7O)nnc6NC[C@H]5C4)nc3)CC2)c1 (single isomer, unassigned) , what Selectivity in MV411 is on record?
OUT: C (C (10-100 fold))

IN: For the compound "C#Cc1ccc(CNC(=O)[C@@H]2C[C@@H](O)CN2C(=O)[C@@H](NC(=O)[C@H]2CC[C@@H](CN3CCC(c4cnc(N5CCN6c7cc(-c8ccccc8O)nnc7NC[C@H]6C5)nc4)CC3)CC2)C(C)(C)C)cc1" , what Selectivity in MV411 is on record?
OUT: B (B (>100-500 fold))

IN: For the compound C#Cc1ccc(CNC(=O)[C@@H]2C[C@@H](O)CN2C(=O)[C@H](NC(=O)N2CC3(CC(N4CCC(c5cnc(N6CCc7[nH]c8nnc(-c9ccccc9O)cc8c7[C@H]6C)nc5)CC4)C3)C2)C(C)(C)CCN2CCOCC2)cc1 (single isomer, unassigned) , what Selectivity in MV411 is on record?
OUT: B (B (>100-500 fold))

IN: For the compound C#Cc1ccc(CNC(=O)[C@@H]2C[C@@H](O)CN2C(=O)[C@H](NC(=O)N2CC3(CC(N4CCC(c5cnc(N6CCc7[nH]c8nnc(-c9ccccc9O)cc8c7[C@H]6C)nc5)CC4)C3)C2)C(C)(C)CCO)c(Cl)c1 (single isomer, unassigned) , what Selectivity in MV411 is on record?
OUT: C (C (10-100 fold))

IN: For the compound C#Cc1ccc(CNC(=O)[C@@H]2C[C@@H](O)CN2C(=O)C(c2cc(N3CCC(CN4CCC(N5CCC(N6CCN7c8cc(-c9ccccc9O)nnc8NC[C@H]7C6)CC5)CC4)CC3)no2)C(C)C)c(Cl)c1 (stereo partly shown) , what Selectivity in MV411 is on record?
OUT: C (C (10-100 fold))

IN: For the compound "CC#Cc1ccc(CNC(=O)[C@@H]2C[C@@H](O)CN2C(=O)[C@@H](NC(=O)N2CC3(CC(N4CCC(c5cnc(N6CCc7[nH]c8nnc(-c9ccccc9O)cc8c7[C@H]6C)nc5)CC4)C3)C2)C(C)(C)C)cc1" , what Selectivity in MV411 is on record?
OUT: B (B (>100-500 fold))
